Source listed as the supplement of paper PMC8728848.

Each item that follows carries a reported glycan array binding signal (z-score).
Target: Fuc(a1-3)[Gal(b1-4)]GlcNAc(b1-6)[Gal(b1-3)GlcNAc(b1-3)]Gal(b1-4)Glc
Assay: glycan array binding signal (z-score within array); higher = stronger binding
Settings: glycan notation: IUPAC condensed, linker removed
The entries come from a sample that favours the strongest signals as a whole.
Give the figure only, with no unit attached.

Below are worked cases with known answers.
>>> readout_number("UEA-I (Ulex europaeus), P22972 (protein) SDDLSFKFKNFSQNGKDLSFQGDASVIETGVLQLNKVGNNLPDETGGIARYIAPIHIWNCNTGEVASFITSFSFFMETSANPKAATDGLTFFLAPPDSPLRRAGGYFGLFEDTKDNDSSYQTVAVEFDTIGSPVNFDDPGFPHIGIDVNRVKSINAERWNKRYGLNNVANVEIIYEASSKTLTASLTYPSDQTSISVTSIVDLKEILPEWVSVGFSGGTYIGRQATHEVLNWYFTSNLINTNS")
-0.103
>>> readout_number("SalT (Orysata sativa) (protein) MTLVKIGLWGGNGGSAQDISVPPKKLLGVTIYSSDAIRSIAFNYIGVDGQEYAIGPWGGGEGTSTEIKLGSSEHIKEISGTHGPVYDLADIVTYLKIVTSANNTYEAGVPNGKEFSIPLQDSGHVVGFFGRSGTLIDAIGIYVHPILEQKLISEEDLNSAVDHHHHHH")
-0.31

Please find the next binder below.
## Input Which measured glycan array binding signal (z-score) value corresponds to CrataBL (Crataeva tapia), C0HJA4 (protein) AILTGVPYYILPSTSRAGFSPDNLRKNTSQLSCPLDLITQLRFPRRIGVPVIFTPQNSSLKVVPLSHNLNIHTCSDLWFCPESKIWTVKSSLTHGGSVVTTGGTFRSLGSWFRIERHGDSYKLVHCPRGSTPCRDVGIETVGGGGRRYLAPRDRPLAVRFTRASG ?
## Output -0.443
